Subject Of Test: EGFR-pY1110
Assay Notes: fluorescence polarization
Reported values of pKd for individual entries
Remember the convention: pKd equals -log10 of concentration in molar.

{"Binder": "T8I S10A K15L (designed binder) MKIEEHHHHHHSSGRENLYFQGGAAQPAAPVDSIQAEEWYFGKLGRKDAERQLLSFGNPRGTFLIRESETIKGAYALSIRDWDDMKGDHVKHYLIRKLDNGGYYITTRAQFETLQQLVQHYSERAAGLSSRLVVPSHKGAAA", "pKd": 6.15}
{"Binder": "ΔT8 S10A K15L (designed binder) MKIEEHHHHHHSSGRENLYFQGGAAQPAAPVDSIQAEEWYFGKLGRKDAERQLLSFGNPRGTFLIRESETTKGAYSLSIRDWDDMKGDHVKHYKIRKLDNGGYYITTRAQFETLQQLVQHYSERAAGLSSRLVVPSHKGAAA", "pKd": 4.82}
{"Binder": "T7S S10A K15L (designed binder) MKIEEHHHHHHSSGRENLYFQGGAAQPAAPVDSIQAEEWYFGKLGRKDAERQLLSFGNPRGTFLIRESESTKGAYALSIRDWDDMKGDHVKHYLIRKLDNGGYYITTRAQFETLQQLVQHYSERAAGLSSRLVVPSHKGAAA", "pKd": 5.80}

// lookup pKd for none (wild-type) (other) MKIEEHHHHHHSSGRENLYFQGGAAQPAAPVDSIQAEEWYFGKLGRKDAERQLLSFGNPRGTFLIRESETTKGAYSLSIRDWDDMKGDHVKHYKIRKLDNGGYYITTRAQFETLQQLVQHYSERAAGLSSRLVVPSHKGAAA
4.59

And T8V S10A K15L (designed binder) MKIEEHHHHHHSSGRENLYFQGGAAQPAAPVDSIQAEEWYFGKLGRKDAERQLLSFGNPRGTFLIRESETVKGAYALSIRDWDDMKGDHVKHYLIRKLDNGGYYITTRAQFETLQQLVQHYSERAAGLSSRLVVPSHKGAAA ?
6.47

And T8V S10A K15I (designed binder) MKIEEHHHHHHSSGRENLYFQGGAAQPAAPVDSIQAEEWYFGKLGRKDAERQLLSFGNPRGTFLIRESETVKGAYALSIRDWDDMKGDHVKHYIIRKLDNGGYYITTRAQFETLQQLVQHYSERAAGLSSRLVVPSHKGAAA ?
5.85

And T8V (designed binder) MKIEEHHHHHHSSGRENLYFQGGAAQPAAPVDSIQAEEWYFGKLGRKDAERQLLSFGNPRGTFLIRESETVKGAYSLSIRDWDDMKGDHVKHYKIRKLDNGGYYITTRAQFETLQQLVQHYSERAAGLSSRLVVPSHKGAAA ?
4.39

And S10A K15L (designed binder) MKIEEHHHHHHSSGRENLYFQGGAAQPAAPVDSIQAEEWYFGKLGRKDAERQLLSFGNPRGTFLIRESETTKGAYALSIRDWDDMKGDHVKHYLIRKLDNGGYYITTRAQFETLQQLVQHYSERAAGLSSRLVVPSHKGAAA ?
5.70
